assay: Solubility of the compound in water by UV spectrophotometry; format: physicochemical
Listing of entries alongside the reported solubility.

Problem: Any idea what its solubility is? The molecule is "CC(=O)Nc1ccc(NC(=S)NC(=O)c2ccc(C(C)(C)C)cc2)cc1"
Solution: 0.12 µg/mL

Problem: Any idea what its solubility is? The molecule is "CN(C)CCCCC(=O)Nc1ccc(NC(=S)NC(=O)c2ccc(C(C)(C)C)cc2)cc1.Cl"
Solution: 0.74 µg/mL

Problem: Any idea what its solubility is? The molecule is "CN(C)CCCC(=O)Nc1ccc(NC(=S)NC(=O)c2ccc(C(C)(C)C)cc2)cc1.Cl"
Solution: 0.57 µg/mL

Problem: Any idea what its solubility is? The molecule is "CN(C)CCCCCC(=O)Nc1ccc(NC(=S)NC(=O)c2ccc(C(C)(C)C)cc2)cc1.Cl"
Solution: > 0.97 µg/mL

Problem: Any idea what its solubility is? The molecule is "CN(C)CCOCCOCCOCCOCCOCC(=O)Nc1ccc(NC(=S)NC(=O)c2ccc(C(C)(C)C)cc2)cc1.Cl"
Solution: > 1.34 µg/mL

Problem: Any idea what its solubility is? The molecule is "CN(C)CCCCCCCC(=O)Nc1ccc(NC(=S)NC(=O)c2ccc(C(C)(C)C)cc2)cc1.Cl"
Solution: > 1.01 µg/mL

# credit: ChEMBL document CHEMBL1944602
